Please find below pIC50 data on human HIF-PHD2 (Homo sapiens, UniProt Q9GZT9) compiled from the literature.
To interpret pIC50, take it as minus log10 of a concentration measured in moles per litre.

// worked examples, pIC50 included
CSc1ncc2c(O)c(C(=O)NCC(=O)O)c(=O)n(C)c2n1 = 7.60
O=C(O)CCNC(=O)c1ncc(C(=O)NC(c2ccc(Cl)cc2)c2ccc(Cl)cc2)c(O)n1 = 9.30
CC1(C)CCCC1n1ncc2nc(-n3cc(C(=O)O)cn3)nc(O)c21 (centres unmarked) = 7.15
O=C(O)c1cnn(-c2nc(O)c3c(cnn3Cc3cccc(-c4cccc(F)c4)c3)n2)c1 = 7.31

Next compound, pIC50 to be filled in.
Query string: What pIC50 appears in the records for this compound with human HIF-PHD2 (Homo sapiens, UniProt Q9GZT9)? O=C(O)c1cnn(-c2nc(O)c3c(cnn3C(c3ccc(F)cc3)C3CC3)n2)c1 (single isomer, unassigned)
Result string: 7.47

* * *

Please find below pIC50 data on human HIF-PHD2 (Homo sapiens) compiled from the literature.
To interpret pIC50, take it as minus log10 of a concentration measured in moles per litre.

Cc1ccc(C(C2CC2)n2ncc3nc(-n4cc(C(=O)O)cn4)nc(O)c32)cc1 (stereo not drawn) = 7.14
COc1ncc2c(O)c(C(=O)NCC(=O)O)c(=O)n(C)c2n1 = 7.74
O=C(O)CNC(=O)c1c(O)c2cccc(-c3ccc(OC(F)(F)F)cc3)c2oc1=O = 6.82
COc1ccc(-c2ccc(C(C)(C)NC(=O)c3cnc(C(=O)NCC(C)C(=O)O)nc3O)cn2)cc1 (single isomer, unassigned) = 8.55
Cc1c(CCn2ncc3nc(-n4cc(C(=O)O)cn4)nc(O)c32)ccc2ccccc12 = 7.29
O=C(O)c1cnn(-c2nc(O)c3c(cnn3Cc3ccc(-c4cc(C(F)(F)F)ccc4F)nc3)n2)c1 = 7.92
CC(CNC(=O)c1ncc(C(=O)NC(C)(C)c2ccc(-c3ccc(C(F)(F)F)cc3)cc2)c(O)n1)C(=O)O (single isomer, unassigned) = 8.09
C[C@@H](c1ccc(C(F)(F)F)cc1)n1nc(C(F)(F)F)c2nc(-n3cc(C(=O)O)cn3)nc(O)c21 = 7.19

Next compound, pIC50 to be filled in.
Query string: Data request, read-out pIC50, for N#Cc1ccc(C(NC(=O)c2cnc(C(=O)NC[C@@H](O)C(=O)O)nc2O)c2ccccc2)cc1 (single isomer, unassigned)
Result string: 7.57

* * *

Please find below IC50 data on UniProt:Q9GZT9 compiled from the literature.
Kindly apply the following: fulfilled if IC50 is less than 60 nM, not fulfilled in every other case.

Answered cases to consult:
O=C(O)c1cnn(-c2nc(O)c3c(cnn3CC3CCN(c4ccc(C(F)(F)F)cn4)CC3)n2)c1 = fulfilled
C[C@H]1CC[C@H](Cn2nc(Cl)c3nc(-n4cc(C(=O)O)cn4)nc(O)c32)CC1 = fulfilled
O=C(O)c1cnn(-c2nc(O)c3c(cnn3CCCOc3ccc(-c4ccccc4)cc3)n2)c1 = fulfilled

Query string: Bench note: check whether C[C@H](c1ccc(Cl)cc1)n1ncc2nc(-n3cc(C(=O)O)cn3)nc(O)c21 shows IC50 below 60 nM
Result string: not fulfilled

Query string: Bench note: check whether Cn1c(=O)c(C(=O)NCC(=O)O)c(O)c2sccc21 shows IC50 below 60 nM
Result string: not fulfilled

Query string: Bench note: check whether O=C(O)CNC(=O)c1c(O)c2cccc(-c3ccc(Cl)c(Cl)c3)c2oc1=O shows IC50 below 60 nM
Result string: fulfilled
